// data source = PubChem BioAssay (EPA / NIEHS)

- protocol-description: ATG_CMV_CIS: Attagene CIS-FACTORIAL HepG2 Assay for human CMV (Internal Marker) (AID 2282928);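 also: endpoint acts as a background internal control marker rather than a target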
- condition-set: HepG2 CMV promoter reporter, transcription factor profiling; actives raise or lower the signal
The source made the active and inactive calls. The calls were made as follows: active = hit-call score of the fitted dose curve at least 0.9, where 1 is the maximum; inactive = score below 0.9.
Would you mind answering with one of these outcomes? 1 (active), 0 (inactive)

Which outcome was assigned to OCCC(F)(F)C(F)(F)C(F)(F)C(F)(F)C(F)(F)C(F)(F)C(F)(F)C(F)(F)F in this test?
0

Then what about the molecule Cc1cc(C)c(O)c(C)c1 ?
1

Likewise for Cc1oc(-c2ccccc2)nc1CCOc1ccc(C[C@H](Nc2ccccc2C(=O)c2ccccc2)C(=O)O)cc1 ?
0

Item: COCC(C)OCC(C)O (configuration not stated)
0

Thanks! And NCC(F)(F)C(F)(F)C(F)(F)C(F)(F)C(F)(F)C(F)(F)C(F)(F)F ?
0

And what about the molecule CC(C)(C)CC(C)(C)c1ccc(O)c(-n2nc3ccccc3n2)c1 ?
1

What do you get for CC(C)(C)c1ccc(O)c(C(C)(C)C)c1 ?
0

What do you get for CN1CCC[C@H]1c1cccnc1 ?
0

Now consider CC(C)CCCCCCOC(=O)CCCCC(=O)OCCCCCCC(C)C .
0

Same question for Cc1cc(CCN2CCN(c3nsc4ccccc34)CC2)cc2c1NC(=O)CC2(C)C please.
0

Would you kindly repeat that for CC[C@H](C)[C@@H](C(=O)O)n1sc2ccccc2c1=O ?
0

Further, for c1ccc2cc3c(ccc4ccccc43)cc2c1 ?
0

###

- Read-out: Cyclin Dependent Kinase Inhibitor 1A (CDKN1A), CDKN1A (gene 1026)
- protocol-description: LTEA_HepaRG_CDKN1A: Life Technologies and Expression Analysis (LTEA) Assay for Cyclin Dependent Kinase Inhibitor 1A (CDKN1A) using HepaRG (AID 2283450)
- condition-set: mRNA level, 48 h; actives raise or lower the signal
- Experimental: LTEA_HepaRG is a cell based, multiplexed-readout assay that uses HepaRG, a human liver cell line, with measurements taken at 48 hours after chemical dosing on a 96-well plate.LTEA_HepaRG_CDKN1A is one of 102 assay component(s) measured in the LTEA HepaRG cell culture assay. It is a marker of Cell proliferation, survival, death.Data from the assay component LTEA_HepaRG_CDKN1A was analyzed into 1 endpoint. […]
Calls of active or inactive are those of the source. The calls were made as follows: active = hit-call score of the fitted dose curve at least 0.9, where 1 is the maximum; inactive = score below 0.9.
Bench note: report the call from active, inactive

Status in this test for CCCCCCC(=O)O ?
inactive

Would you mind doing COC(=O)CCCCC(=O)OC as well?
inactive

Same question for CC(C)CCCCCCOC(=O)CCCCC(=O)OCCCCCCC(C)C please.
inactive

What do you have for OC1CCCCC1 ?
inactive

Cool, now COCC(C)OCC(C)O (stereo not drawn)
inactive

What about CCCCC(CC)COC(=O)CCCCC(=O)OCc1ccccc1 (stereo not drawn) ?
inactive

Try the compound c1ccc2c(c1)Cc1ccccc1-2
inactive

Another: CC(C)(C)c1cccc(C(C)(C)C)c1O
inactive

Now consider ClC1=C(Cl)C(Cl)(Cl)C(Cl)=C1Cl .
inactive

Can you check O=C(O)Cc1cc(I)c(Oc2cc(I)c(O)c(I)c2)c(I)c1 next?
active

Thanks! And CCCCCCCCCCCCCCCS(=O)(=O)Oc1ccccc1 ?
inactive

Same for CCc1nn(C2CCCCC2)c2cc(C3(C#N)CCC(C(=O)O)CC3)ccc12 (stereo not drawn)
active

Repeat with NC(=O)N(O)[C@@H]1C=C[C@H](Oc2cccc(Oc3ccc(F)cc3)c2)C1
active

###

- protocol-description: BSK_LPS_PGE2: BioMAP Diversity Plus: LPS Assay for Prostaglandin E2 (PGE2) Biomarker Activity (AID 2283082)
- condition-set: primary human HUVEC with PBMC; actives raise or lower the signal
Active and inactive are the calls of the source. Rule for the calls: active = hit-call score of the fitted dose curve at least 0.9, where 1 is the maximum; inactive = score below 0.9.
Hello, when you answer, please use one of the following outcomes: active, inactive

Hello, I am checking results. What call was entered for Cc1cc(C)c(O)c(C)c1 ?
active

Would you mind doing CC[C@H](C)[C@@H](C(=O)O)n1sc2ccccc2c1=O as well?
active

For OCCC(F)(F)C(F)(F)C(F)(F)C(F)(F)C(F)(F)C(F)(F)F then?
inactive

Input C=C(C)C(=O)OCCC(F)(F)C(F)(F)C(F)(F)C(F)(F)C(F)(F)C(F)(F)F
inactive

Check O=C(OCCOCCOC(=O)c1ccccc1)c1ccccc1 too.
inactive

Next record, please: CC#C[C@]1(O)CC[C@H]2[C@@H]3CCC4=CC(=O)CCC4=C3[C@@H](c3ccc(N(C)C)cc3)C[C@@]21C
inactive

Same read-out for CCCCCCCCC(=O)O ?
inactive

And then CN(C)C=O , what is it?
inactive

// next record CC(O)CO (configuration not stated)
inactive

One more compound: CC[C@H](c1ccc(O)cc1)[C@@H](CC)c1ccc(O)cc1
active

Note, next up: CC(C)(C)CC(C)(C)c1ccc(O)c(-n2nc3ccccc3n2)c1
inactive

Moving on to Nc1cccc2c(N)cccc12
active

###

- protocol-description: APR_HepG2_MicrotubuleCSK_24hr: Apredica 24-hour HepG2 Assay for Microtubule CSK Stabilty (AID 2282909)
- condition-set: HepG2 microtubule cytoskeleton imaging, actives raise or lower the signal
Calls of active or inactive are those of the source. Rule for the calls: active = hit-call score of the fitted dose curve at least 0.9, where 1 is the maximum; inactive = score below 0.9.
Result category, one only: Yes = active, No = inactive

What call does the record list for NC(=O)N1C(=O)C(C(=O)c2cc(Cl)cs2)c2cc(F)c(Cl)cc21 (stereo not given) ?
Yes

Try this compound next: CCCCC(CC)COC(=O)CCCCC(=O)OCc1ccccc1 (stereo not given)
No

Same lookup for OC1CCCCC1 , please.
No

How about this compound: Cc1cc(CCN2CCN(c3nsc4ccccc34)CC2)cc2c1NC(=O)CC2(C)C
No

One more compound: CCCCCCCC(=O)O
No

Okay, and CCCOC(=O)c1ccc(O)cc1 ?
No

What would you report for CN(C)C=O ?
No

Now consider Oc1cccc(O)c1 .
No

Also COCC(C)O (stereo not given) ?
No

# repeat for O=C(O)Cc1cc(I)c(Oc2cc(I)c(O)c(I)c2)c(I)c1
No

Entry to check: CCN(CC)CCNc1ccc(CNC=O)c2sc3ccc(OC)cc3c(=O)c12
No

Try CC(C)(C)c1cccc(C(C)(C)C)c1O next.
No

Then what about the compound CCCCCCCCC(=O)O ?
No

Next record, please: ClC1=C(Cl)C(Cl)(Cl)C(Cl)=C1Cl
No

Proceed to CCCCCCC(=O)O
No

###

- Read-out: Potassium channel subfamily K member 1 (KCNK1), KCNK1 (gene 3775)
- protocol-description: LTEA_HepaRG_KCNK1: Life Technologies and Expression Analysis (LTEA) Assay for Potassium channel subfamily K member 1 (KCNK1) using HepaRG (AID 2283511)
- condition-set: mRNA level, 48 h; actives raise or lower the signal
Active and inactive are the calls of the source. Rule for the calls: active = hit-call score of the fitted dose curve at least 0.9, where 1 is the maximum; inactive = score below 0.9.
Parameter call: string, one of active, inactive

Hi, sorry to bother you, what did the test record for CC(C)(C)CC(C)(C)c1ccc(O)c(-n2nc3ccccc3n2)c1 ?
inactive

Entry to check: O=C(O)Cc1cc(I)c(Oc2cc(I)c(O)c(I)c2)c(I)c1
active

Another: CCC(C)(C)C1CCC(O)CC1 (stereo not given)
inactive

Entry to check: OC1CCC(C2CCCCC2)CC1 (stereo not given)
inactive

CC(=O)NC1(c2cccc(F)c2)CCN(CC[C@@]2(c3ccc(Cl)c(Cl)c3)CN(c3ccccc3)C(=O)CO2)CC1 ?
inactive

// repeat for CN1CCN(c2ccccc2/C=C2\SCCN(c3ccc(Cl)c(Cl)c3)C2=O)CC1 and report
active

Please answer likewise for CCCCCCC(=O)O
inactive

# repeat for COC(=O)CCCCC(=O)OC
inactive

Could you do the same for O=C(OCCOCCOC(=O)c1ccccc1)c1ccccc1 , please?
inactive

Queued: Cc1cc(C)c(O)c(C)c1
inactive

Now give it for O=C(O)c1ccccc1C(c1ccc(O)cc1)c1ccc(O)cc1 too.
inactive

Moving on to the next compound: C#C[C@]1(O)CC[C@H]2[C@@H]3CCC4=CC(=O)CC[C@@H]4[C@H]3CC[C@@]21C
inactive

Quick one: CC(C)(C)c1cc(C(C)(C)C)c(O)c(C(C)(C)C)c1
inactive

Moving on to N#C[C@@H]1CC(F)(F)CN1C(=O)CNC1CC2CCC(C1)N2c1ncccn1 (stereo not given in full)
inactive

Next: CCCCCCCCOC(=O)CCCCCCCCC(=O)OCCCCCCCC
inactive

Could you do the same for c1ccc2c(c1)Cc1ccccc1-2 , please?
inactive

Queued: ClC1=C(Cl)C(Cl)(Cl)C(Cl)=C1Cl
inactive

Input CCCCCCCCC(=O)O
inactive

Same read-out for CC(C)CCCCCCOC(=O)CCCCC(=O)OCCCCCCC(C)C ?
inactive

How about CCC(=C(c1ccc(O)cc1)c1ccc(OCCN(C)C)cc1)c1ccccc1 ?
inactive

Note, next up: OCCC(F)(F)C(F)(F)C(F)(F)C(F)(F)C(F)(F)C(F)(F)C(F)(F)C(F)(F)F
inactive

Follow-up entry: C=C(C)C(=O)OCCC(F)(F)C(F)(F)C(F)(F)C(F)(F)C(F)(F)C(F)(F)F
inactive

Consider next the compound CC(C)(C)c1cccc(C(C)(C)C)c1O in the same way.
inactive

Further, for CCCCC(CC)COC(=O)CCCCC(=O)OCc1ccccc1 (stereo not given) ?
inactive

Same for c1ccc2cc3c(ccc4ccccc43)cc2c1
inactive
